tested on: Bacillus subtilis; assay: Antimicrobial activity against Bacillus subtilis ATCC 6633 incubated for 48 hrs by broth dilution method; assay type: functional, organism-based; conditions: ATCC 6633, 48 h
Task for the reader: assign each of the following molecules its reported MIC.
Give bare numbers, in µg/mL.

For orientation, consider the following solved cases.
>  <Molecule>
CC[C@@H](C)C(=O)c1c(O)cc(O)cc1CC(=O)O

>  <Endpoint name>
MIC

>  <Measured number>
150

$$$$
>  <Molecule>
C[C@@H]1O[C@@H](O[C@@H]2[C@@H](O)[C@H](OCCc3ccc(O)c(O)c3)O[C@H](CO)[C@H]2OC(=O)/C=C/c2ccc(O)c(O)c2)[C@H](O)[C@H](O)[C@H]1O [ACETOSIDE]

>  <Endpoint name>
MIC

>  <Measured number>
150

$$$$
>  <Molecule>
CN[C@@H]1[C@H](O[C@H]2[C@H](O[C@H]3[C@H](O)[C@@H](O)[C@H](N=C(N)N)[C@@H](O)[C@@H]3N=C(N)N)O[C@@H](C)[C@]2(O)C=O)O[C@@H](CO)[C@H](O)[C@H]1O.CN[C@@H]1[C@H](O[C@H]2[C@H](O[C@H]3[C@H](O)[C@@H](O)[C@H](N=C(N)N)[C@@H](O)[C@@H]3N=C(N)N)O[C@@H](C)[C@]2(O)C=O)O[C@@H](CO)[C@H](O)[C@H]1O.O=S(=O)(O)O.O=S(=O)(O)O.O=S(=O)(O)O [STREPTOMYCIN SULFATE]

>  <Endpoint name>
MIC

>  <Measured number>
5

$$$$

Now, please, on to the next molecule.
GET /value?item= C[C@@H]1O[C@@H](O[C@@H]2[C@@H](O)[C@H](OCCc3ccc(O)c(O)c3)O[C@H](CO)[C@@H]2OC(=O)/C=C/c2ccc(O)c(O)c2)[C@H](O)[C@H](O)[C@H]1O &field=MIC returns 150
